Taken from PubChem BioAssay.

Target: E3 ubiquitin-protein ligase XIAP (Homo sapiens) (UniProt P98170)
Sequence (P98170 whole entry, looked up): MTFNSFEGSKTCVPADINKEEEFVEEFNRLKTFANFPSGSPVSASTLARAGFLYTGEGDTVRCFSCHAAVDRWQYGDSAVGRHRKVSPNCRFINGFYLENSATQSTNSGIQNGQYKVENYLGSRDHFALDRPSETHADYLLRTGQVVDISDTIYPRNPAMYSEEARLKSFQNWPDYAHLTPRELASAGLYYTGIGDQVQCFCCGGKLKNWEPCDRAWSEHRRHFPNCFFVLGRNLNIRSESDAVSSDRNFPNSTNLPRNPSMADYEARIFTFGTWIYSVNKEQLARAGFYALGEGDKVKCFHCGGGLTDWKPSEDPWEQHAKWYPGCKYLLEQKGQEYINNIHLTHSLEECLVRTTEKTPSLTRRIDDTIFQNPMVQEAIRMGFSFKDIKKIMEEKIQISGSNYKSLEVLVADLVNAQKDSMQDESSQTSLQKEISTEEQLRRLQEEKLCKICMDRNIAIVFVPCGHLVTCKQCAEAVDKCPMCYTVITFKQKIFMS
Experiment: small molecules binding XIAP protein – biophysical, small-molecule microarray, fluorescence 635 nm, primary screen (AID 1181);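 also: score merges 667 nm emission and signal to noise over triplicate slides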
Settings: higher = more signal
Kindly supply the reported composite z-score values for the records listed here.
Number only, no unit.

Measured on E3 ubiquitin-protein ligase XIAP (Homo sapiens) (UniProt P98170), COc1cc(OC)c(C(O)C2C=CC3C(=O)NC(=O)C3N2Nc2ccccn2)cc1Br (centres undefined) has a documented composite z-score of -0.0525

Measured on E3 ubiquitin-protein ligase XIAP (Homo sapiens) (UniProt P98170), CCCC=C(CCC)[C@@H](NS(=O)(=O)c1ccc(Cl)cc1)c1ccc(C(=O)OC)cc1 has a documented composite z-score of -0.122

Measured on E3 ubiquitin-protein ligase XIAP (Homo sapiens) (UniProt P98170), CC(C)[Si](C#CCCCC#N)(Oc1ccccc1Br)C(C)C has a documented composite z-score of -0.0525

Measured on E3 ubiquitin-protein ligase XIAP (Homo sapiens) (UniProt P98170), CC(C)(C)OC(=O)CC[C@]1(C(N)=O)N=C(c2ccc(OCCCO)cc2)O[C@H]1c1ccccc1 has a documented composite z-score of 0.12

Measured on E3 ubiquitin-protein ligase XIAP (Homo sapiens) (UniProt P98170), NC(=O)N1C(=O)C2C(C1=O)C1C=C(CCCO)C2C(C2CC2)N1Cc1cc2c(cc1Br)OCO2 (centres undefined) has a documented composite z-score of 0.0479

Measured on E3 ubiquitin-protein ligase XIAP (Homo sapiens) (UniProt P98170), C=CCC(OC(C)=O)[C@@H]1[C@@H](N(Cc2ccc(-c3cccc(C(F)(F)F)c3)o2)C(=O)Cc2ccc(OC)cc2)c2cc(OCCCO)ccc2N1C(=O)c1ccc2ccccc2c1 (some centres undefined) has a documented composite z-score of 0.144

Measured on E3 ubiquitin-protein ligase XIAP (Homo sapiens) (UniProt P98170), NCCCCCNC(=O)[C@H]1C[C@H]2C(=O)N[C@@H](Cc3ccccc3)C(=O)N2[C@H]1c1cccc(OCCO)c1 has a documented composite z-score of -0.0599

Measured on E3 ubiquitin-protein ligase XIAP (Homo sapiens) (UniProt P98170), O=C1O[C@@H](c2ccccc2)[C@@H](c2ccccc2)N2[C@@H](c3ccccc3OCCO)[C@]3(C(=O)Nc4ccccc43)[C@@H](C(=O)O)[C@H]12 has a documented composite z-score of 0.0755

Measured on E3 ubiquitin-protein ligase XIAP (Homo sapiens) (UniProt P98170), COCCCNC(=O)[C@@]1(Cc2ccccc2CN=[N+]=[N-])N=C(c2ccc(OCCCO)cc2)O[C@H]1c1ccccc1CN=[N+]=[N-] has a documented composite z-score of 0.244

Measured on E3 ubiquitin-protein ligase XIAP (Homo sapiens) (UniProt P98170), COC(=O)[C@@]1(CCC(=O)OC(C)(C)C)N=C(c2ccc(OCCCO)cc2)O[C@H]1c1ccccc1 has a documented composite z-score of -0.0095

Measured on E3 ubiquitin-protein ligase XIAP (Homo sapiens) (UniProt P98170), O=C1[C@H]2C=C(I)[C@H](C[C@@H]2OCCCCO)[C@@]12CO2 has a documented composite z-score of -0.0448

Measured on E3 ubiquitin-protein ligase XIAP (Homo sapiens) (UniProt P98170), CC(C)C(=C=CC[C@H](O)c1ccc(CO)o1)CCO has a documented composite z-score of 0.102

Measured on E3 ubiquitin-protein ligase XIAP (Homo sapiens) (UniProt P98170), CN1C(=O)C2C=CC(C(O)C=Cc3ccc([N+](=O)[O-])cc3)N(Nc3ccccc3)C2C1=O (centres undefined) has a documented composite z-score of 0.376

Measured on E3 ubiquitin-protein ligase XIAP (Homo sapiens) (UniProt P98170), COc1ccc(C(=O)Nc2ccc(CN3C(=O)[C@]4(O[C@H](CC(=O)N5CCC[C@H]5CO)[C@@H]([Si](C)(C)c5ccc(OC)cc5)[C@@H]4C)c4ccccc43)cc2)cc1 has a documented composite z-score of -0.361

Measured on E3 ubiquitin-protein ligase XIAP (Homo sapiens) (UniProt P98170), O=C1[C@H]2C=C(Br)[C@H](C[C@@H]2OCCCCCCO)[C@@]12CO2 has a documented composite z-score of -0.395

Measured on E3 ubiquitin-protein ligase XIAP (Homo sapiens) (UniProt P98170), Cc1ccc(S(=O)(=O)N2C[C@@H](C(=O)O)[C@H](Sc3ccccc3)C[C@H]2c2ccccc2)cc1 has a documented composite z-score of -0.303

Measured on E3 ubiquitin-protein ligase XIAP (Homo sapiens) (UniProt P98170), CN(C)CCCCCCNC(=O)[C@@H]1C[C@@H]2C(=O)N[C@@H](CCCC[N+](C)(C)C)C(=O)N2[C@@H]1c1ccc(O)cc1 has a documented composite z-score of 0.0785

Measured on E3 ubiquitin-protein ligase XIAP (Homo sapiens) (UniProt P98170), CCOC(=O)C[C@H]1[C@H](OC(=O)c2ccc(C(=O)c3ccccc3)cc2)[C@@H](NC(=O)Cc2ccc(OC)cc2)c2cc(OCCCO)ccc2N1C(=O)c1ccc2ccccc2n1 has a documented composite z-score of 0.0801

Measured on E3 ubiquitin-protein ligase XIAP (Homo sapiens) (UniProt P98170), O=C1O[C@H](c2ccccc2)[C@H](c2ccccc2)N2[C@H]1[C@@H](C(=O)N1CCN(c3ncccn3)CC1)[C@]1(C(=O)Nc3ccc(C#CC4=CCCCC4)cc31)[C@H]2c1ccccc1OCCO has a documented composite z-score of 0.0547

Measured on E3 ubiquitin-protein ligase XIAP (Homo sapiens) (UniProt P98170), COc1cc(CO)cc(I)c1O[C@H]1C=C(C(=O)NCCO)C[C@@H](N(C(=O)c2cc3ccccc3oc2=O)C2CCCCCC2)[C@@H]1O has a documented composite z-score of -0.154

Measured on E3 ubiquitin-protein ligase XIAP (Homo sapiens) (UniProt P98170), COC(=O)[C@@]1(Cc2ccc(F)cc2)[C@H]2c3cc(C(=O)N(C)C)n(Cc4cc(C)n(C)n4)c3C[C@H]2CN1C(=O)c1ccccc1 has a documented composite z-score of 0.473

Measured on E3 ubiquitin-protein ligase XIAP (Homo sapiens) (UniProt P98170), C=CCNC(=O)[C@H]1[C@@H]2C(=O)O[C@@H](c3ccccc3)[C@@H](c3ccccc3)N2[C@@H](c2ccc(OCCO)cc2)[C@]12C(=O)Nc1ccc(C#CCC(C(=O)OC)C(=O)OC)cc12 has a documented composite z-score of 0.0975

Measured on E3 ubiquitin-protein ligase XIAP (Homo sapiens) (UniProt P98170), C=CCN1C(=O)[C@]2(Cc3ccccc3)N=C(c3ccc(OCCCO)cc3)O[C@@H]2c2ccccc21 has a documented composite z-score of 0.33

Measured on E3 ubiquitin-protein ligase XIAP (Homo sapiens) (UniProt P98170), O=C1OCC=C[C@H]2OC34C=CCN(CCN5CCOCC5)C(=O)[C@H]3N(CCO)C(=O)[C@@H]4[C@@H]12 (some centres undefined) has a documented composite z-score of -0.28

Measured on E3 ubiquitin-protein ligase XIAP (Homo sapiens) (UniProt P98170), COCCOC(=O)N1C(=O)[C@@]2(c3cc(C#CC4=CCCCC4)ccc31)[C@H](C(N)=O)[C@H]1C(=O)O[C@H](c3ccccc3)[C@H](c3ccccc3)N1[C@@H]2c1ccc(O)cc1 has a documented composite z-score of -0.223

Measured on E3 ubiquitin-protein ligase XIAP (Homo sapiens) (UniProt P98170), CO[C@H]1O[C@H](CO)[C@@H](OC(=O)Nc2ccc(Oc3ccccc3)cc2)[C@H](OC(=O)Nc2ccc3c(c2)OCO3)[C@@H]1OC(=O)Nc1ccc2c(c1)OCO2 has a documented composite z-score of 0.222

Measured on E3 ubiquitin-protein ligase XIAP (Homo sapiens) (UniProt P98170), CCCCCN1CC=CC23O[C@@H]4C=CCOC(=O)[C@@H]4[C@H]2C(=O)N(C(C)CO)[C@@H]3C1=O (some centres undefined) has a documented composite z-score of -0.269

Measured on E3 ubiquitin-protein ligase XIAP (Homo sapiens) (UniProt P98170), CC(=CC1CCCCC1)[C@@H](NC(=O)c1cccnc1)c1ccc(-c2ccccc2)cc1 has a documented composite z-score of -0.0095

Measured on E3 ubiquitin-protein ligase XIAP (Homo sapiens) (UniProt P98170), COC(=O)[C@@]1(Cc2ccccc2)[C@H]2c3cc(C(=O)N4CCCC4)n(Cc4ccc(O)c(OC)c4)c3C[C@H]2CN1C(=O)c1ccccc1 has a documented composite z-score of 0.224
